# study-target: streptavidin (Streptomyces avidinii)
# Construct: purchased New England Biolabs
# Sequence (P22629 25-183): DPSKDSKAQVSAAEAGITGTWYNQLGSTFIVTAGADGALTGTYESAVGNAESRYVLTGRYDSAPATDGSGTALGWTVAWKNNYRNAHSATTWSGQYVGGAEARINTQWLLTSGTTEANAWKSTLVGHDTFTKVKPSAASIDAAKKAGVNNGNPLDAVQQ
# experimental-details: biochemical
# Format: binding
Peptide text beside a SMILES is read from it.
readout: Kd
The reply should read as a number followed by its unit.

• C[C@H](N)C(=O)N[C@@H](CS)C(=O)N[C@@H](Cc1c[nH]cn1)C(=O)N1CCC[C@H]1C(=O)N[C@@H](CCC(N)=O)C(=O)N[C@@H](CC(N)=O)C(=O)N[C@@H](CS)C(=O)N[C@H](C(=O)N[C@@H](CCC(=O)O)C(=O)N1CCC[C@H]1C(=O)N[C@@H](C)C(=O)N[C@@H](CS)C(N)=O)[C@@H](C)O [compound 3] (H-ACHPQNCTEPAC-NH2) = 927 µM
• C[C@H](N)C(=O)N[C@H]1CS[As]2SC[C@@H](C(N)=O)NC(=O)[C@H](C)NC(=O)[C@@H]3CCCN3C(=O)[C@H](CCC(=O)O)NC(=O)[C@H]([C@@H](C)O)NC(=O)[C@H](CS2)NC(=O)[C@H](CC(N)=O)NC(=O)[C@H](CCC(N)=O)NC(=O)[C@@H]2CCCN2C(=O)[C@H](Cc2c[nH]cn2)NC1=O = 11.7 µM
• C[C@H](N)C(=O)N[C@@H](CS)C(=O)N1CCC[C@H]1C(=O)N[C@@H](Cc1c[nH]cn1)C(=O)N1CCC[C@H]1C(=O)N[C@@H](CCC(N)=O)C(=O)N[C@@H](CS)C(=O)N[C@@H](CCC(=O)O)C(=O)N[C@@H](C)C(=O)N[C@@H](C)C(=O)N[C@@H](C)C(=O)N[C@@H](CS)C(N)=O [compound 2] (H-ACPHPQCEAAAC-NH2) = 1520 µM

Switching to the query record.
Req: Please look at this compound and report its Kd: CC(C)[C@@H]1NC(=O)[C@H](CCC(N)=O)NC(=O)[C@@H]2CCCN2C(=O)[C@H](Cc2c[nH]cn2)NC(=O)[C@@H](NC(=O)[C@H](C)N)CS[As]2SC[C@@H](C(N)=O)NC(=O)[C@H](CCC(=O)O)NC(=O)[C@H]([C@@H](C)O)NC(=O)[C@@H]3CCCN3C(=O)[C@H](CO)NC(=O)[C@H](CS2)NC1=O
Resp: 42.8 µM
